biological target: PDE5 (cGMP-specific PDE) (Homo sapiens, UniProt O76074)
metricName: pIC50
// field semantics: pIC50 = negative decimal log of concentration (mol/L)

[ask] Notebook entry, PDE5 (cGMP-specific PDE) (Homo sapiens, UniProt O76074) assay: pIC50 of CCCc1nn(C)c2c(=O)[nH]c(Cc3ccc(N(CC)CC)cc3)nc12 = ?
[reply] 5.60

###

target: PDE5 (Oryctolagus cuniculus, UniProt G1SX67); construct: PDE5 is also obtained from human platelets or rabbit platelets; from tissue; host or cells: rabbit platelets; experiment: PDE5 inhibition, rabbit platelet; type: biochemical; conditions: rabbit platelet, comparative study; read-out: PDE5 INHIBITION - IC50 Values
Below is a list of entries, each paired with its recorded pIC50 value.
// pIC50: -log10(molar conc.)

> print(dat)
                                   compound  metricname  quantitativereadout
1  CCCc1nn(C)c2c(=O)[nH]c(Cc3ccc(N(CC)CC)cc3)nc12       pIC50                 5.17

// next entry
[ask] Need pIC50 of Cc1nn(C)c2c(=O)[nH]c(Cc3ccc(N(C)C)cc3)nc12 ['188 compound, reference compound] , thanks.
[reply] 5.55

###

tested on: PDE4 (cAMP-specific PDE); assay: PDE inhibition, PDE type 4 from rat kidney; assay type: biochemical; conditions: PDE type 4, rat kidney
metricName: pIC50
# pIC50 = -log10(concentration in molar units)

[ask] // lookup pIC50 | system=PDE4 (cAMP-specific PDE) | key= CCCc1nn(C)c2c(=O)[nH]c(Cc3ccc(N(CC)CC)cc3)nc12
[reply] 4.64

###

Test system: PDE3 (cGMP-inhibited cAMP PDE)
Experiment: PDE inhibition, PDE type 3 from human corpus cavernosum
Format: biochemical
Conditions: PDE type 3, human corpus cavernosum
Text: In vitro PDE inhibitory activities against cyclic guanosine 3', 5'-monophosphate (cGMP) and cyclic adenosine 3', 5'-monophosphate (cAMP) phosphodiesterases can be determined by measurement of their IC50 inhibition of enzyme activity. […]
metricName: pIC50
pIC50 is a log-scale quantity: -log10 of the concentration expressed in molar.

[ask] Which value of pIC50 has been reported for CCCc1nn(C)c2c(=O)[nH]c(Cc3ccc(N(CC)CC)cc3)nc12 in the records?
[reply] 5.40

###

Target: PDE1 (calcium/calmodulin (Ca/CAM)-dependent PDE) (Homo sapiens, UniProt Q14123)
Construct: obtained from either human cardiac ventricle or rat kidney
Sequence (Q14123 1-634 isoform Q14123-2): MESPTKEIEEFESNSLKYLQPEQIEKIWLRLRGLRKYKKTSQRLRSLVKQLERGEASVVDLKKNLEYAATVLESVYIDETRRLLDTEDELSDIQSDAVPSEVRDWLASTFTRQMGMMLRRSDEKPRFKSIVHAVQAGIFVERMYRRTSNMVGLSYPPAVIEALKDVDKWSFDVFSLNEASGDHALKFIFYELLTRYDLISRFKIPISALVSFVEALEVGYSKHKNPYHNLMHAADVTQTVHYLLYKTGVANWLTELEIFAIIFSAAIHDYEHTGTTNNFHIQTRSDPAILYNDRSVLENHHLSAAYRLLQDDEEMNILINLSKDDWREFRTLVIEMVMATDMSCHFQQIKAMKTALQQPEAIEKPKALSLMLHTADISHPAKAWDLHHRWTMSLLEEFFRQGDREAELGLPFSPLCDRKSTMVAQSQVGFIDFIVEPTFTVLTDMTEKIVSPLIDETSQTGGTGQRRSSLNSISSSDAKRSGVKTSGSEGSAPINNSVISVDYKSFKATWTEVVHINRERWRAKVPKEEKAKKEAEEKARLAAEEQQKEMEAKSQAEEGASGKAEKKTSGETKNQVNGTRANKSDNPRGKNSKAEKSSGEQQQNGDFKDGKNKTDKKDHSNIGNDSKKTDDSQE
Test: PDE inhibition, PDE type 1 from human cardiac ventricle
Details: PDE type 1, human cardiac ventricle
From the text: In vitro PDE inhibitory activities against cyclic guanosine 3', 5'-monophosphate (cGMP) and cyclic adenosine 3', 5'-monophosphate (cAMP) phosphodiesterases can be determined by measurement of their IC50 inhibition of enzyme activity. […]
metricName: IC50 (nM)
Report only the number, with the unit nM understood.

[ask] Data request, read-out IC50, for CCCc1nn(C)c2c(=O)[nH]c(Cc3ccc(N(CC)CC)cc3)nc12 [Example 50]
[reply] 38
